- Test system: muqueuse
- MEASUREMENT PROTOCOL: Comparative acute in vivo toxicity (mucosal irritation, C20)
- Set-up: species or system lapin
- CONDITION SUMMARY: rabbit, in vivo
Readings of concentration théorique provoquant une irritation de la muqueuse moyenne identique (C20) for the listed molecules

Let me check: CCCCCCCCCCCC[N+](C)(C)Cc1ccccc1 , system muqueuse, measured concentration théorique provoquant une irritation de la muqueuse moyenne identique (C20) is 0,28 g %

Let me check: CCCCCCCCCCCCC[N+](C)(C)Cc1ccccc1 [chlorure de benzalkonium] , system muqueuse, measured concentration théorique provoquant une irritation de la muqueuse moyenne identique (C20) is 0,25 g %

Let me check: CCCCCCCCCCCCCCCC[N+](C)(C)Cc1ccccc1 , system muqueuse, measured concentration théorique provoquant une irritation de la muqueuse moyenne identique (C20) is 0,32 g %

Let me check: [H]/N=C(\N/C(=N/[H])NCCCCCCNC(=N)NC(=N)Nc1ccc(Cl)cc1)Nc1ccc(Cl)cc1 [digluconate de chlorhexidine] , system muqueuse, measured concentration théorique provoquant une irritation de la muqueuse moyenne identique (C20) is 0,54 g %
